Below are GI50 values recorded for NCI-H460 lung.

compound: Cc1ccc(-c2c(C#N)c(N)nc(N3CCOCC3)c2C#N)o1
test-result: 43.3 µM
//
compound: COc1cc2cc(Oc3ccc(NC(=O)Nc4ccc(F)c(C(F)(F)F)c4)cc3)c(C)nc2cc1OCCN1CCCCC1
test-result: 1.89 µM
//
compound: Cc1cc(NC(=O)C2c3ccccc3C(=O)N(CC(C)C)C2c2cccs2)no1 (centres undefined)
test-result: > 100 µM

# input Reported GI50 for NCI-H460 lung, given `CC(=O)c1ccc(Nc2cc(-n3ccnc3)nc3ccccc23)cc1` ?
# output 34.2 µM

---

- Tested on: SK-MEL-5 melanoma
- method-summary: NCI tumour cell line growth inhibition, 48 h
This listing pairs compounds with measured TGI.

compound: COc1ncnc2c1cnn2Cc1cn(COCC(O)CO)nn1 (stereo unspecified)
test-result: > 100 µM

compound: CC(=O)OC1/C(=C/c2ccc([N+](=O)[O-])cc2)C[C@H]2[C@@H]3CC=C4C[C@@H](OC(C)=O)CC[C@]4(C)[C@H]3CC[C@]12C (stereo partly specified)
test-result: > 100 µM

compound: COc1cc2c(cc1OC)C(=O)C(Br)CC2 (stereo unspecified)
test-result: 3.19 µM

compound: ClC(Cl)(Cl)C1CCOC1n1nc2ccccc2n1 (stereo unspecified)
test-result: > 100 µM

compound: N#Cc1ccccc1NC(=O)C(=O)C(C(=O)c1ccccc1-c1ccccc1)C1OC(=O)c2ccccc21 (stereo unspecified)
test-result: > 100 µM

# input Any idea what TGI came out for `CC(=O)[CH-]C(=O)c1ccccc1.CC(=O)[CH-]C(=O)c1ccccc1.CCN(CC)CC[O-].CCN(CC)CC[O-].Cl.[Ti+4]` on SK-MEL-5 melanoma?
# output > 100 µM

---

- Test system: SF-539 CNS
- method-summary: NCI tumour cell line growth inhibition, 48 h
quantity-measured: TGI

compound: Nc1ccn(C=C=CCO)c(=O)n1
tgt: SF-539 CNS
TGI: > 1000 µM
//
compound: NS(=O)(=O)c1ccc(NC(=O)c2cc([N+](=O)[O-])cc([N+](=O)[O-])c2)cc1
tgt: SF-539 CNS
TGI: > 100 µM
//
compound: CC(C)Nc1[nH]c(C(=O)c2ccccc2)c(N)c1C(=S)Nc1ccccc1
tgt: SF-539 CNS
TGI: > 100 µM
//
compound: CCCCCCCCCCCCCCCCCCNC(=O)[C@H]1CSC(c2ccc(OC)c(F)c2)N1 (stereo partly drawn)
tgt: SF-539 CNS
TGI: > 37.6 µM
//
compound: Clc1ccccc1/C=C/c1nsc(/C=C/c2ccccc2Cl)n1
tgt: SF-539 CNS
TGI: > 100 µM

# input Data request, read-out TGI, for O=C(O)CCC(NC(=O)c1ccc(Nc2nc3ccccc3nc2C(=O)O)cc1)C(=O)O (stereo not drawn)
# output > 100 µM

# input Returns the measured TGI for the input compound. Input: `O=C(O)CN(c1ccc(Cl)cc1)S(=O)(=O)c1ccccc1`
# output > 100 µM

# input What value of TGI has been reported for the following compound? O=C1C2=C(c3ccccc31)C(c1cccc(Cl)c1)NC(=S)N2 (stereo not drawn)
# output > 100 µM

# input Can you look up the measured TGI of `CCOC(=O)/N=c1\ss/c(=N\C(=S)N(C)C)n1-c1ccccc1` for me?
# output > 100 µM

# input Requested read-out: TGI. Entry: `Cc1cc(C)nc(NS(=O)(=O)c2ccc(Nc3c4ccccc4nc4c(C(=O)Nc5ccc(S(N)(=O)=O)cc5)cccc34)cc2)n1`
# output > 100 µM

# input Report TGI for `COc1cc(C(=O)O)c([N+](=O)[O-])c(OC)c1OC` please.
# output > 100 µM

# input I'd like to know its TGI. The compound in question is COc1ccc(-c2oc3cc(O)c(OC)c(O)c3c(=O)c2OC2OC(CO)C(O)C(O)C2O)cc1 (stereo not drawn)
# output > 100 µM

# input Field request: TGI | item: COc1ncnc2c1cnn2Cc1cn(COCC(O)CO)nn1 (stereo not drawn)
# output > 100 µM
